System: ovary (Ovcar-3)
Assay: Cell viability (ATP luminescence) IC50 determination, Ovcar-3
Assay type: cell-based
Conditions: Homo sapiens, Ovcar-3 cells, 72 hours incubation, vs DMSO vehicle control
Record form. Attribute: pIC50. Fill in for each entry.
One number for each entry, as −log10 of the molar value.

Some solved cases for reference:
[
  {
    "compound": "CCOCCCCC[C@@H]1C[C@@H]2[C@H](CC[C@]3(C)C(O)CC[C@@H]23)c2ccc(O)cc21 (stereo partly shown)",
    "target desc": "ovary (Ovcar-3)",
    "pIC50": 4.55
  },
  {
    "compound": "CO[C@@H]1C[C@@H]2[C@H](CC[C@]3(C)C(O)CC[C@@H]23)c2ccc(O)cc21 (stereo partly shown)",
    "target desc": "ovary (Ovcar-3)",
    "pIC50": 3.68
  },
  {
    "compound": "C[C@]12CC[C@@H]3c4ccc(O)cc4[C@H](CON)C[C@H]3[C@@H]1CCC2O (stereo partly shown)",
    "target desc": "ovary (Ovcar-3)",
    "pIC50": 3.50
  },
  {
    "compound": "CCC(CCCCC[C@@H]1C[C@@H]2[C@H](CC[C@]3(C)C(O)CC[C@@H]23)c2ccc(O)cc21)OC (stereo partly shown)",
    "target desc": "ovary (Ovcar-3)",
    "pIC50": 4.70
  },
  {
    "compound": "COC[C@@H]1C[C@@H]2[C@H](CC[C@]3(C)C(O)CC[C@@H]23)c2ccc(O)cc21 (stereo partly shown)",
    "target desc": "ovary (Ovcar-3)",
    "pIC50": 4.00
  }
]

Batch request: pIC50 for each of the following compounds.
1. COCCCC[C@@H]1C[C@@H]2[C@H](CC[C@]3(C)C(O)CC[C@@H]23)c2ccc(O)cc21 (stereo partly shown)
2. C[C@]12CC[C@@H]3c4ccc(O)cc4[C@H](CO)C[C@H]3[C@@H]1CCC2O (stereo partly shown)
3. CCCOCCCC[C@@H]1C[C@@H]2[C@H](CC[C@]3(C)C(O)CC[C@@H]23)c2ccc(O)cc21 (stereo partly shown)
4. COCC[C@@H]1C[C@@H]2[C@H](CC[C@]3(C)C(O)CC[C@@H]23)c2ccc(O)cc21 (stereo partly shown)
5. COC[C@H]1C[C@@H]2[C@H](CC[C@]3(C)C(O)CC[C@@H]23)c2ccc(O)cc21 (stereo partly shown)
6. COCCCCCC[C@@H]1C[C@@H]2[C@H](CC[C@]3(C)C(O)CC[C@@H]23)c2ccc(O)cc21 (stereo partly shown)

1. 4.22
2. 3.66
3. 4.54
4. 4.02
5. 4.03
6. 4.62

----------
Tested on: Pancreas (Capan-1)
Assay: Cell viability (ATP luminescence) IC50 determination, Capan-1
Assay type: cell-based
Conditions: Homo sapiens, Capan-1 cells, 72 hours incubation, vs DMSO vehicle control
For each record, write down the corresponding pIC50.
Answers are plain numbers, as −log10 of the molar value.

[
  {
    "molecule": "COCCCCCC[C@@H]1C[C@@H]2[C@H](CC[C@]3(C)C(O)CC[C@@H]23)c2ccc(O)cc21 (stereo partly shown)",
    "target desc": "Pancreas (Capan-1)",
    "pIC50": 4.64
  },
  {
    "molecule": "C[C@]12CC[C@@H]3c4ccc(O)cc4[C@H](CON)C[C@H]3[C@@H]1CCC2O (stereo partly shown)",
    "target desc": "Pancreas (Capan-1)",
    "pIC50": 3.56
  },
  {
    "molecule": "CCC(CCCCC[C@@H]1C[C@@H]2[C@H](CC[C@]3(C)C(O)CC[C@@H]23)c2ccc(O)cc21)OC (stereo partly shown)",
    "target desc": "Pancreas (Capan-1)",
    "pIC50": 4.66
  },
  {
    "molecule": "COC[C@H]1C[C@@H]2[C@H](CC[C@]3(C)C(O)CC[C@@H]23)c2ccc(O)cc21 (stereo partly shown)",
    "target desc": "Pancreas (Capan-1)",
    "pIC50": 3.77
  },
  {
    "molecule": "CCCOCCCC[C@@H]1C[C@@H]2[C@H](CC[C@]3(C)C(O)CC[C@@H]23)c2ccc(O)cc21 (stereo partly shown)",
    "target desc": "Pancreas (Capan-1)",
    "pIC50": 5.00
  }
]

For the 2 molecules below, give their pIC50 values.
1. C[C@]12CC[C@@H]3c4ccc(O)cc4[C@H](CO)C[C@H]3[C@@H]1CCC2O (stereo partly shown)
2. CCOCCCCC[C@@H]1C[C@@H]2[C@H](CC[C@]3(C)C(O)CC[C@@H]23)c2ccc(O)cc21 (stereo partly shown)

[3.67, 4.82]

----------
System: Pancreas (Capan-1)
Experiment: Cell viability (ATP luminescence) IC50 determination, Capan-1
Format: cell-based
Details: Homo sapiens, Capan-1 cells, 72 hours incubation, vs DMSO vehicle control
Give IC50 for every item shown.
Answers are plain numbers, in µM.

Completed entries (count: 3):
[
  {
    "compound": "COCCCC[C@@H]1C[C@@H]2[C@H](CC[C@]3(C)C(O)CC[C@@H]23)c2ccc(O)cc21 (stereo partly drawn)",
    "quantity": "IC50",
    "unit": "µM",
    "reported result": 16
  },
  {
    "compound": "COCC[C@@H]1C[C@@H]2[C@H](CC[C@]3(C)C(O)CC[C@@H]23)c2ccc(O)cc21 (stereo partly drawn)",
    "quantity": "IC50",
    "unit": "µM",
    "reported result": 32
  },
  {
    "compound": "CCCCCCCCCCCCCCCCCC(=O)OC1CC[C@H]2[C@@H]3C[C@@H](COC)c4cc(O)ccc4[C@H]3CC[C@]12C (stereo partly drawn)",
    "quantity": "IC50",
    "unit": "µM",
    "reported result": 775
  }
]

Hi, could you look up IC50 for each item in my list?
1. CO[C@@H]1C[C@@H]2[C@H](CC[C@]3(C)C(O)CC[C@@H]23)c2ccc(O)cc21 (stereo partly drawn)
2. COC[C@@H]1C[C@@H]2[C@H](CC[C@]3(C)C(O)CC[C@@H]23)c2ccc(O)cc21 (stereo partly drawn)

1. 192
2. 32
